Test system: CYP3A4 mRNA
Protocol: Concentration-dependent CYP3A4 mRNA induction in HepatoCells
Particulars: Lot 3B; RIS = (Emax × Cmax,ub)/(EC50 + Cmax,ub)
Metric Name: RIS Based on mRNA

Q) # return recorded RIS Based on mRNA for entry O=C1C(CC[S+]([O-])c2ccccc2)C(=O)N(c2ccccc2)N1c1ccccc1 (stereo not drawn)
A) 1.1

Q) Please indicate RIS Based on mRNA recorded for `O=C1NC(=O)C(c2ccccc2)(c2ccccc2)N1`
A) 8.5

Q) # return recorded RIS Based on mRNA for entry `CCCN(CCC)S(=O)(=O)c1ccc(C(=O)O)cc1`
A) 2.4

Q) Look up and report measured RIS Based on mRNA for this entry: CCc1ccc(CCOc2ccc(CC3SC(=O)NC3=O)cc2)nc1 (stereo not drawn)
A) 0.21

Q) Recall and state the measured RIS Based on mRNA for NC(=O)N1c2ccccc2C=Cc2ccccc21 [Carbamazepine] .
A) 1.3

Q) Please report RIS Based on mRNA for the following compound: COc1ccc2[nH]c([S+]([O-])Cc3ncc(C)c(OC)c3C)nc2c1 (stereo not drawn)
A) 0.079
